biological target: purified Pin1 WW-domain (UniProt Q13526 5-39); assay: NMR titration
Sequence (Q13526 5-39): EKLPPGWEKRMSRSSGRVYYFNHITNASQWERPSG
metric: Kd (µM)
Kindly provide the numeric value in µM only, without the unit symbol.

In: Query (binder): HKCRKAGVGQSWKENSPLNVS (not fully specified; phosphoserine at 253; phosphoserine at 258) [double phosphorylated pSer253/pSer258 TFCD peptide] ; field requested: Kd
Out: 133
